Give solubility for every item shown.
# assay.summary: physchem
# condition.context: pH 7, aqueous buffer, kinetic from dmso stock
A number alone suffices; assume µM.

Incoming: Provide only the value of recorded solubility for CCC(C)n1c(Br)nc2c(-c3cnc(N)nc3)nc(N3CCOCC3)nc21 (centres unmarked)
Outgoing: 44

Incoming: Provide only the value of recorded solubility for CCC(C)n1cnc2c(-c3cnc(N)nc3)nc(N3CCOCC3)nc21 (centres unmarked)
Outgoing: 35

Incoming: Provide only the value of recorded solubility for "CC(C)n1c(Br)nc2c(-c3cnc(N)nc3)nc(N3CCOCC3)nc21"
Outgoing: 18

* * *

Give half-life for every item shown.
# assay.summary: in vitro
# condition.context: human, microsomes, pH 7.4
A number alone suffices; assume min.

Incoming: Provide only the value of recorded half-life for "CCc1nc2c(-c3cnc(N)nc3)nc(N3CCOCC3)nc2n1C(C)C"
Outgoing: 36

Incoming: Provide only the value of recorded half-life for CCC(C)n1c(C)nc2c(-c3cnc(N)nc3)nc(N3CCOCC3)nc21 (stereo not shown)
Outgoing: 26

* * *

# condition.context: as drug candidate
endpoint: solubility, assessment in words

1. CCC(C)n1c(C)nc2c(-c3cnc(N)nc3)nc(N3CCOCC3)nc21 (stereo not shown)
acceptable
2. CCC(C)n1c(Br)nc2c(-c3cnc(N)nc3)nc(N3CCOCC3)nc21 (stereo not shown)
low solubility
3. CCc1nc2c(-c3cnc(N)nc3)nc(N3CCOCC3)nc2n1C(C)C
acceptable
4. CCC(C)n1cnc2c(-c3cnc(N)nc3)nc(N3CCOCC3)nc21 (stereo not shown)
low solubility
